Test system: SN12C renal
Assay: NCI tumour cell line growth inhibition, 48 h
Threshold check on TGI: at or above 50 µM gives TRUE, strictly below gives FALSE.

> print(dat)
                                    compound  label
 1        OC(c1ccc2c(c1)OCO2)c1ccc2c(c1)OCO2   TRUE
 2  CC(=O)c1c(CO[N+](=O)[O-])n([O-])c2ccccc2[n+]1=O   TRUE
 3  COC(=O)C(COC(=O)/C=C/c1ccc(OC(C)=O)c(OC(C)=O)c1)NC(=O)/C=C/c1ccc(OC(C)=O)c(OC(C)=O)c1 (stereo unspecified)  FALSE
 4  NC(=O)SCCC(N)C(=O)O (stereo unspecified)   TRUE
 5  CC(C)(C)OC(=O)NCCCC(=O)NC1(c2cc3ccccc3s2)CCCCC1  FALSE
 6  Cc1cc(N2CCOCC2)nc(N(CCCNc2ccnc3cc(Cl)ccc23)Cc2ccco2)n1  FALSE
 7  O=C1C2C(C(=O)N1c1ccccc1)C1([N+](=O)[O-])C=C3c4ccccc4N(C(=O)c4ccccc4)C32C2C(=O)N(c3ccccc3)C(=O)C21 (stereo unspecified)   TRUE
 8  CSC(=S)OC1CC(n2cnc3c(NC(=O)c4ccccc4)ncnc32)OC1CO[Si](C)(C)C(C)(C)C (stereo unspecified)   TRUE
 9  CCOC(=O)c1c(C)n(C)c2c1cc(O)c1[nH]c3c(c12)CCCC3   TRUE
10  O=C1NNC2NC(=O)C3(NN2C1=O)c1ccccc1-c1ccccc13 (stereo unspecified)   TRUE
11  CCN(CC)c1ccc2nc3ccc(N=Nc4c(O)ccc5ccccc45)cc3[n+](-c3ccccc3)c2c1   TRUE
12  CCOC(=O)c1c(C)n([O-])c2cc(Cl)c(Cl)cc2[n+]1=O   TRUE
13  CC(=O)O[C@H]1[C@@H]2OC(=O)C(CSc3ccccc3)[C@@H]2C[C@H]2O[C@]2(C)CC/C=C(\C)CCC[C@@H]1C (stereo partly specified)  FALSE
14  C=C1C(OC(=O)/C=C/c2ccccc2)CC(OC(C)=O)C2(C)C1CC1CC(OC(C)=O)C(C)=C(C(OC(C)=O)C2OC(C)=O)C1(C)C (stereo unspecified)   TRUE
15  Cc1ccc(C2COc3cc(O)c(O)cc3C2)cc1 (stereo unspecified)   TRUE

This collection of values is drawn from PubChem BioAssay (NCI).
